Each recorded value in this set is attributed to paper PMC3944524.

Entries with reported MIC50 on Enterococcus faecalis (ATCC 29212)
Number in µM, nothing else.

Study these solved cases before continuing.
Cl.Nc1nc(-c2cccc(NC(=O)c3cc4cc(F)ccc4[nH]3)c2)c[nH]1 ... 27.3
Cl.Nc1nc(-c2cccc(NC(=O)c3cc4cc(OCc5ccccc5)ccc4[nH]3)c2)c[nH]1 ... 8

Request: For Enterococcus faecalis (ATCC 29212), give the measured MIC50 of the entry `Nc1nc(-c2cccc(NC(=O)c3cc4ccccc4[nH]3)c2)c[nH]1`
Response: 34

Request: Give MIC50; test system Enterococcus faecalis (ATCC 29212); molecule `CNc1nc(-c2cccc(NC(=O)c3cc4ccccc4[nH]3)c2)c[nH]1`
Response: 54.2

###

Here, each record is paired with measured melting point data.

Cl.Nc1nc(-c2cccc(NC(=O)c3cc4cc(O)ccc4[nH]3)c2)c[nH]1 [Compound 8] ... 248 to 252 °C
Nc1nc(-c2cccc(NCc3ccc[nH]3)c2)cn1Cc1ccccc1 [Compound 16] ... 165 to 168 °C
CC(C)(C)OC(=O)n1cc(-c2cccc(NC(=O)c3cc4cc(OC(F)(F)F)ccc4[nH]3)c2)nc1N [Compound 5g] ... 185 to 187 °C
CC(C)(C)OC(=O)n1cc(-c2cccc(NC(=O)c3cc4cc(OCc5ccccc5)ccc4[nH]3)c2)nc1N [Compound 5h] ... 140 to 143 °C
Cl.Nc1nc(-c2cccc(NC(=O)c3cc4cc(Cl)ccc4[nH]3)c2)c[nH]1 [Compound 6i] ... 201 to 204 °C
CC(C)(C)OC(=O)n1cc(-c2cccc(NC(=O)c3cc4sccc4[nH]3)c2)nc1N [Compound 5k] ... 178 to 180 °C
Nc1nc(-c2cccc(NC(=O)c3ccc[nH]3)c2)cn1Cc1ccccc1 [Compound 15] ... 229 to 232 °C
Cl.Nc1nc(-c2cccc(NC(=O)c3cc4sccc4[nH]3)c2)c[nH]1 [Compound 6k] ... 198 to 202 °C

Could you now consider this next molecule?
Request: Give the value of melting point reported for the following: CC(C)(C)OC(=O)n1cc(-c2cccc(NC(=O)c3cc4cc(Cl)ccc4[nH]3)c2)nc1N [Compound 5i]
Response: 188 to 190 °C

###

# Tested on: Enterococcus faecalis (ATCC 29212)
# assay info: Broth microdilution antimicrobial assay, Enterococcus faecalis
# Type: cell-based
# run parameters: E. faecalis MIC50 vs Huh-7 cytotoxicity IC50
property label: SI (selectivity index)

Some compounds with recorded SI (selectivity index):
CNc1nc(-c2cccc(NC(=O)c3cc4ccccc4[nH]3)c2)c[nH]1 ... 1.0
Cl.Nc1nc(-c2cccc(NC(=O)c3cc4cc(F)ccc4[nH]3)c2)c[nH]1 ... 0.7

Request: Quote SI (selectivity index) reported for `Nc1nc(-c2cccc(NC(=O)c3cc4ccccc4[nH]3)c2)c[nH]1` please.
Response: 1.2

Request: Look up SI (selectivity index) of `Cl.Nc1nc(-c2cccc(NC(=O)c3cc4cc(OCc5ccccc5)ccc4[nH]3)c2)c[nH]1` and report it.
Response: 2.7

###

# assay info: Mammalian cell cytotoxicity, ATP assay (CellTiter-Glo)
# Format: cell-based, human
# run parameters: human, Huh-7 cells, ATP assay, 24 h exposure, average of two dose-response experiments
property label: IC50 at 24 h

Solved entries:
CC(C)(C)OC(=O)n1cc(-c2cccc(NC(=O)c3cc4cc(Cl)ccc4[nH]3)c2)nc1N ... > 100 µM
Cl.Nc1nc(-c2cccc(NC(=O)c3cc4cc(O)ccc4[nH]3)c2)c[nH]1 ... > 100 µM

Request: Determine from records and report IC50 at 24 h for `Nc1nc(/C=C/CNC(=O)c2cc(Br)c(Br)[nH]2)c[nH]1`
Response: > 100 µM
